Entries and their measured growth follow.
Tested on: RPMI-8226 leukemia
TEST METHOD NOTES: NCI-60 one-dose screen, 48 h (100 = growth as untreated, 0 = no growth, -100 = all killed)
CONDITIONS USED: 10 µM unless noted
The panel holds about 83,000 compounds, 20% with a hit somewhere; the sample as a whole holds those more often. Activity calls are given as the source filed them. How the source made its calls: active means growth percent below 10; inactive means the rest.

COMPOUND	growth
C=C(CO)[C@@H]1CC[C@]2(COC3CCCCO3)CC[C@]3(C)[C@H](CC[C@@H]4[C@@]5(C)C=C(C=O)C(=O)C(C)(C)[C@@H]5CC[C@]43C)[C@@H]12 (stereo partly drawn)	-35% (active)
Cc1ncc(C(=O)Nc2ccc(CN3CCN(C)CC3)c(C(F)(F)F)c2)cc1C#Cc1cnc(N)c2cnccc12	39.2% (inactive)

Q. Please report the measured growth for COc1cc(-c2nc(SCCC(C)C)nc(N3CCOCC3)c2C#N)cc(OC)c1OC tested on RPMI-8226 leukemia.
A. 90.3% (inactive)

* * *

Test system: DU-145 prostate
TEST METHOD NOTES: NCI-60 one-dose screen, 48 h (100 = growth as untreated, 0 = no growth, -100 = all killed)
CONDITIONS USED: 10 µM unless noted
Compounds without any hit were thinned out: in the full panel of roughly 83,000, 20% have a hit.
Reported growth is given for each of the following molecules.
Lab book: enter the figure in %, no units written.

Before answering, review these 3 worked examples.
MOLECULE	UNITS	OBSERVED MEASUREMENT
O=C(CSc1nc2ccc([N+](=O)[O-])cc2[nH]1)Nc1ccc(Br)cc1	%	62.2
Cc1cc(N2CCCCC2)nc(N2CCN(CC(=O)Nc3ccc4c(ccn4Cc4ccccc4)c3)CC2)n1	%	79.6
C/C(=C(/c1ccc(Cl)cc1)c1ccc(OCCCN(C)C)cc1)c1ccc(Cl)cc1	%	95.5

Q. Fill in growth for record C#Cc1cccc(Nc2nc3ccc([N+](=O)[O-])cc3nc2Nc2cccc(C#C)c2)c1
A. -52.4

Q. State, in one line, measured growth of N=C(N)SCc1cccc2c(CSC(=N)N)cccc12
A. 107

Q. For the molecule COc1ccc(NC(=O)c2ccc(C(=O)Nc3ccc(OC)cc3OC)cc2)c(OC)c1 , give its reported growth.
A. 94.6

Q. Please report growth for the following molecule: S=c1[nH]c2cc(Cl)ccc2o1
A. 102

Q. Kindly indicate its recorded growth. Item: COc1ccc(-c2ccc(=O)oc2C#Cc2cc(OC)c(OC)c(OC)c2)cc1O
A. -4.48

Q. Please report growth for the following molecule: O=C1CCCc2nc3sc4c(=O)n(-c5ccccc5Cl)nnc4c3cc21
A. 111

* * *

System: SF-539 CNS
TEST METHOD NOTES: NCI-60 one-dose screen, 48 h (100 = growth as untreated, 0 = no growth, -100 = all killed)
CONDITIONS USED: 10 µM unless noted
Compounds without any hit were thinned out: in the full panel of roughly 83,000, 20% have a hit.
Assign labels as follows, please: yes for growth below 60%; no for growth equal to or exceeding 60%.

Illustrative cases are given below, each with its answer.
MOLECULE	CAT
COc1cc(-c2nc3occn3c2-c2ccnc(NCCCNS(=O)(=O)c3ccccc3)n2)ccc1F	no
C=C1C(=O)O[C@H]2[C@H]1CC/C(COC(=O)/C=C\C(=O)NCc1ccc(Cn3c(=O)sn(-c4ccccc4)c3=O)cc1)=C\CC[C@@]1(C)O[C@@H]21	no
Oc1c(Cl)cc(Cl)c2ccc(Cn3cc(-c4cccc(C(F)(F)F)c4)nn3)nc12	no
CCOC(=O)c1c(NC(=O)CSc2n[nH]c3nc4ccccc4n23)sc(CC)c1C	no
CC(C)CSc1oc(-c2ccccc2)nc1S(=O)(=O)c1ccccc1	no

Q. Is growth of CCOC(=O)N1CCN(S(=O)(=O)c2oc(-c3ccc(Cl)cc3)nc2C#N)CC1 strictly below 60%?
A. no

Q. Does the reported growth of the following molecule sit strictly below 60%? N=C(N)c1ccc(-c2ccc(-c3ccc(Cl)cc3)o2)o1
A. no

Q. Take the molecule O=C(CCCCl)NNc1nccc(Nc2ccc(S(=O)(=O)Nc3ccncc3)cc2)n1 and say whether its growth is less than 60%.
A. no

Q. # check: growth < 60% for COc1ccc(C2C(C#N)=C(N)Oc3c2sc2c(Br)cccc32)cc1 (stereo not given)
A. yes

* * *

Test system: NCI-H23 lung
TEST METHOD NOTES: NCI-60 one-dose screen, 48 h (100 = growth as untreated, 0 = no growth, -100 = all killed)
CONDITIONS USED: 10 µM unless noted
The panel holds about 83,000 compounds, 20% with a hit somewhere; the sample as a whole holds those more often.
ATTRIBUTE MEASURED: growth (%)
Provide the reading as a plain figure in %.

Some entries whose results are on file:
> print(dat)
                                   molecule  attribute.measured  observed.measurement
1          Cc1cc2oc(=O)cc(CP(=O)(O)O)c2cc1O              growth                   100
2  CC(=O)c1c(Nc2ccc(F)c(F)c2F)[nH]c2c(F)cc(F)cc2c1=O              growth                 -3.83
3  CCCC(O)Cn1ncc(C(=O)OCC)c1NC(=O)NCc1cccc(F)c1 (centres undefined)              growth                  91.2

Proceed to the following item.
Q. Kindly indicate its recorded growth. Item: CC1CN=C(c2cccc(-c3ccc(-c4ccccc4)o3)c2)N1 (centres undefined)
A. 27.6

* * *

System: HS 578T breast
TEST METHOD NOTES: NCI-60 one-dose screen, 48 h (100 = growth as untreated, 0 = no growth, -100 = all killed)
CONDITIONS USED: 10 µM unless noted
This is part of a sample that, as a whole, favours compounds with a hit. Of some 83,000 tested, about 20% had one in any assay.
Use 80% as the dividing line for growth, with the line itself on the met side and lower values as not met.

Example cases with answers are listed next.
MOLECULE	CAT
C/C(=N\Nc1nc(C)cs1)c1cc2ccccc2o1	met
COc1ccc(C2=CN3CC=CCC3CC2=O)cc1 (stereo not given)	met
O=C(CBr)CN1C(=O)c2ccccc2C1=O	met
Cc1cc2nc3c4ccccc4n(CCN(C)C)c3nc2cc1C	not met

Q. Reported growth at or above 80%? N=C(N)c1ccc(-c2ccc(-c3ccc(F)cc3)s2)s1
A. met

Q. // inclusive: growth at least 80%? input: COc1ccc2c(O)c(/C=C3\N=Nc4ccccc43)oc2c1C[C@H]1CCNC[C@H]1F
A. not met

Q. Evaluate COc1cc(C(=O)C(=O)c2cc(OC)c(O)c(OC)c2)cc(OC)c1O : growth at minimum 80%?
A. met

Q. Quick check, growth >= 80%? Cc1c2cnccc2c(C)c2c1c1cc(C3OCCCO3)ccc1n2C
A. not met

Q. Check if growth >= 80% (inclusive). Item: c1ccc(CCc2ccccc2-c2cc(-c3ccccc3)on2)cc1
A. met

Q. Check this molecule for growth at or above 80%: C=C(C)[C@@H]1CC[C@]2(CO)CC[C@]3(C)[C@H](CC[C@@H]4[C@@]5(C)CCC(NCCc6ccc(O)cc6)C(C)(C)[C@@H]5CC[C@]43C)[C@@H]12 (stereo not given in full)
A. not met

Q. hey, is growth for this one >= 80%? O=C(CCCCCCN1CC(=O)N2[C@@H](C3CCCCC3)c3[nH]c4ccccc4c3C[C@H]2C1=O)NO
A. not met

Q. Entry COc1ccc(-c2cc(-c3cc(OC)c(OC)c(OC)c3)c(C#N)c(=O)n2CCCCCC(=O)NO)cc1 : is its growth no less than 80%?
A. met

Q. In plain terms: is recorded growth at least 80% for COc1cc2oc(-c3cccc(NC(=O)c4ccc5c(c4)OCO5)c3)cc(=O)c2c(OC)c1OC ?
A. not met

Q. Record COc1ccc(C2=C/C(=C\c3ccc(Cl)cc3)C(=O)N2/N=C/c2ccc(Cl)cc2)cc1 ; criterion: growth no lower than 80%. Met?
A. met

Q. Item O=C(Cn1nnc([N+](=O)[O-])n1)c1ccccc1 with growth of 80% or above?
A. met

* * *

Tested on: SK-MEL-2 melanoma
TEST METHOD NOTES: NCI-60 one-dose screen, 48 h (100 = growth as untreated, 0 = no growth, -100 = all killed)
CONDITIONS USED: 10 µM unless noted
Compounds without any hit were thinned out: in the full panel of roughly 83,000, 20% have a hit.
Catalogue of growth readings, one per entry.
Give the number; % is assumed, so skip it.

> print(dat)
                                 cpd.smiles  observed.measurement
1   C#CCn1cnc2c(Nc3cccc(NC(=O)CCl)c3)ncnc21                    46
2  CCOC(=O)CSc1nc2sc3c(c2c(=O)n1-c1ccc([N+](=O)[O-])cc1)CCCCC3                  90.9

Q. Let me know recorded growth for COc1cc2c(cc1O)[C@@]1(C)[C@H](c3ccccc3Br)OC(=O)N1CC2 , thanks.
A. 89.8
